The reported measurements were obtained from patent US5219867A.

Tested on: cytosolic ionized calcium in human platelets
Assay: Inhibition of collagen-induced rise in cytosolic ionized calcium (aequorin luminescence)
Assay type: cell-based
Settings: Homo sapiens, Platelet, collagen-induced, 1mM [Ca2+]o (n = 4); read-out: Ica50 ± S.E. Collagen-induced (50% inhibition of collagen-induced rise in cytosolic ionized calcium)
Counter-ions that a name gives are not always drawn.
Each item that follows carries a reported IC50.
// note: answer is a bare numeric in µM

CCN(CC)C(=O)[C@@H]1CCCN(Cc2ccc(CN3CCC[C@H](C(=O)N(CC)CC)C3)cc2)C1: 24.3

From here, focus on the item given below.
**Query** I have this molecule here, CCN(CC)C(=O)C1CCCN(Cc2ccc(CN3CCCC(C(=O)N(CC)CC)C3)cc2)C1 (racemic) [Compound I, dihydrobromide] , and I need its recorded IC50.
**Result** 21.2

* * *

System: human blood platelets
Assay: In vitro inhibition of ADP-induced human platelet aggregation (platelet-rich plasma, aggregometer)
Assay type: cell-based
Settings: Homo sapiens, Platelet; table 4; ADP-induced; 5 to 7 individual determinations; read-out: Ia50 ± S.E. ADP-induced
Method: Procedure for Determining In Vitro Platelet Aggregation-Inhibitory Activity. Adenosine diphosphate (ADP) was used to induce platelet aggregation and was utilized as the sodium salt. A 10 mM stock solution was prepared fresh before each use in modified Tyrode's buffer and working dilutions were prepared with modified Tyrode's buffer immediately prior to use. The buffer contained NaCl (137.00 mM), KCl (2.70 mM), NaHCO3 (11.90 mM), NaH2 PO4 H2 O (0.36 mM) and glucose (5.60 mM) in redistilled water. […]
Structures can show the parent of a compound that is named as a salt.
measured.property: IC50 (µM)
Number in µM, nothing else.

**Query** Need IC50 of O=C(C1CCCN(Cc2ccc(CN3CCCC(C(=O)N4CCCCC4)C3)cc2)C1)N1CCCCC1 (racemic) [Compound 10, dihydrobromide] , thanks.
**Result** 28.9

* * *

System: cytosolic ionized calcium in human platelets
Experiment: Inhibition of collagen-induced rise in cytosolic ionized calcium (aequorin luminescence)
Type: cell-based
Conditions: collagen-induced, 1mM [Ca2+]o (n = 4); listed as IC (+)-I, dihydrobromide; read-out: Ica50 ± S.E. Collagen-induced (50% inhibition of collagen-induced rise in cytosolic ionized calcium)
Structures can show the parent of a compound that is named as a salt.
measured.property: IC50 (µM)
Unit µM implied. Number only.

**Query** Item under review: CCN(CC)C(=O)C1CCCN(Cc2ccc(CN3CCCC(C(=O)N(CC)CC)C3)cc2)C1 (single isomer, unassigned) [IC, dihydrobromide] . Reported IC50?
**Result** 3.6
